Read-out: Cyclin D1 (CCND1), CCND1 (gene 595)
Assay: LTEA_HepaRG_CCND1: Life Technologies and Expression Analysis (LTEA) Assay for Cyclin D1 (CCND1) using HepaRG (AID 2283451)
Details: mRNA level, 48 h; actives raise or lower the signal
Calls of active or inactive are those of the source. Rule for the calls: active = hit-call score of the fitted dose curve at least 0.9, where 1 is the maximum; inactive = score below 0.9.
Please reply with one of these outcomes: yes (1) for active, no (0) for inactive

Recorded results for 5 molecules are shown here.
>  <molecule>
Oc1cc2ccccc2c2ccccc12

>  <answer label>
no (0)

$$$$
>  <molecule>
CCCOC(=O)c1ccc(O)cc1

>  <answer label>
no (0)

$$$$
>  <molecule>
Cc1oc(-c2ccccc2)nc1CCOc1ccc(C[C@H](Nc2ccccc2C(=O)c2ccccc2)C(=O)O)cc1

>  <answer label>
yes (1)

$$$$
>  <molecule>
O=C(OCCOCCOC(=O)c1ccccc1)c1ccccc1

>  <answer label>
no (0)

$$$$
>  <molecule>
CN1CCN(c2ccccc2/C=C2\SCCN(c3ccc(Cl)c(Cl)c3)C2=O)CC1

>  <answer label>
no (0)

$$$$

State the result this test recorded for NC(=O)N1C(=O)C(C(=O)c2cc(Cl)cs2)c2cc(F)c(Cl)cc21 (stereo not drawn) .
yes (1)

State the result this test recorded for CCCCC(CC)COC(=O)CCCCC(=O)OCc1ccccc1 (stereo not drawn) .
no (0)

State the result this test recorded for CC(O)CO (stereo not drawn) .
no (0)

----------
Test: BSK_BT_Bcell_Proliferation: Viability Assessment in the BioMAP Diversity Plus: BT Assay for B cell Proliferation (AID 2284227)
Conditions: primary human B cells with PBMC
The source made the active and inactive calls. The calls were made as follows: active = hit-call score of the fitted dose curve at least 0.9, where 1 is the maximum; inactive = score below 0.9.
Please reply with one of these outcomes: Y for active, N for inactive

>  <smiles input>
CCCCCCCCCCCCCC[N+](C)(C)C

>  <answer label>
Y

$$$$
>  <smiles input>
OCCC(F)(F)C(F)(F)C(F)(F)C(F)(F)C(F)(F)C(F)(F)F

>  <answer label>
N

$$$$
>  <smiles input>
FC(F)(I)C(F)(F)C(F)(F)C(F)(F)C(F)(F)C(F)(F)I

>  <answer label>
Y

$$$$

Continue with the next molecule.
State the result this test recorded for `C[C@@H]1C[C@H]2[C@@H]3CCC4=CC(=O)C=C[C@]4(C)[C@@]3(F)[C@@H](O)C[C@]2(C)[C@@]1(O)C(=O)COP(=O)(O)O` .
N

----------
Assay: BSK_3C_uPAR: BioMAP Diversity Plus: 3C Assay for Urokinase-type plasminogen activator receptor (uPAR) Biomarker Activity (AID 2282998)
Details: BioMAP 3C HUVEC, uPAR biomarker ELISA; actives raise or lower the signal
Method: BSK_3C is a cell-based, multiplexed-readout assay that uses umbilical vein endothelium, a human vascular primary cell, with measurements taken at 24 hours after chemical dosing in a 96-well plate.BSK_3CAR is an assay component measured in the BSK_3C assay. It measures uPAR antibody related to regulation of gene expression using ELISA technology.Data from the assay component BSK_3CAR was analyzed into 1 assay endpoint. […]
The source made the active and inactive calls. Rule for the calls: active = hit-call score of the fitted dose curve at least 0.9, where 1 is the maximum; inactive = score below 0.9.
metric name: AC50

Some compounds with known AC50 results, for comparison:
>  <compound>
c1ccc2cc3c(ccc4ccccc43)cc2c1

>  <result>
inactive

$$$$
>  <compound>
O=C(O)c1ccccc1C(c1ccc(O)cc1)c1ccc(O)cc1

>  <result>
inactive

$$$$
>  <compound>
CC(O)CO (stereo unspecified)

>  <result>
inactive

$$$$
>  <compound>
CC[C@H](C)[C@@H](C(=O)O)n1sc2ccccc2c1=O

>  <result>
inactive

$$$$

Look up and report measured AC50 for this entry: `Oc1cc2ccccc2c2ccccc12`
11.2 µM (active)

Look up and report measured AC50 for this entry: `CCOC(=O)CC(O)(CC(=O)OCC)C(=O)OCC`
inactive

Look up and report measured AC50 for this entry: `CC1=C(/C=C/C(C)=C/C=C/C(C)=C/C(=O)O)C(C)(C)CCC1`
inactive
